Data origin: patent EP0028305A1

Test system: virus
Test: plaque reduction (PR) test
Format: cell-based
Settings: second value printed in parentheses in the same cell, meaning not explained; read-out: PR(ED50/µM)
Method: Activity may be detected by the plaque inhibition (PI) test and measured by the plaque reduction (PR) test. Both assays involve the formation of a monolayer cell culture in a petri dish followed by infection with a virus suspension, and then overlaying the culture with nutrient agarose in the form of a gel. […] Detectable activity is measured with the plaque reduction assay. […] Plaque numbers are expressed as percentages of a control, and a dose response curve may be drawn. […]
Reported EC50 values follow for various molecules
measurement.kind: EC50 (µM)

1) FC(F)(F)c1cccc(OCc2ccccc2)c1 ... 1.7
2) CC(C)(C)c1cccc(OCc2ccc(Cl)cc2)c1 ... 5
